TEST PROTOCOL: Confirmatory growth inhibition assay, mycobacterium tuberculosis h37rv, with cytotoxicity (AID 1332);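 also: bacteria incubated 7 days before adding Alamar blue readout reagent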
SETUP CONDITIONS: M. tuberculosis H37Rv growth inhibition; measured here: IC50 H37Rv replicates
About 170 (15%) of roughly 1,100 compounds were called active. Not all results are given here.
Let's look at some compounds and their measured IC50.

See these solved cases before continuing.
INSERT INTO measurements (compound, value_observed) VALUES
  ('CN1CCN(C(c2ccccc2)c2ccccc2)CC1', '> 20 µg/mL'),
  ('COC(=O)[C@H]1[C@H]2C[C@@H]3c4[nH]c5cc(OC)ccc5c4CCN3C[C@H]2C[C@@H](OC(=O)/C=C/c2cc(OC)c(OC)c(OC)c2)[C@@H]1OC', '4.23 µg/mL'),
  ('CCC(=O)OC1(C(=O)CCl)[C@@H](C)C[C@H]2[C@@H]3CCC4=CC(=O)C=C[C@]4(C)[C@@]3(F)[C@@H](O)C[C@@]21C (stereo partly drawn)', '> 20 µg/mL'),
  ('COC(=O)[C@H]1[C@H]2C[C@H]3c4[nH]c5ccccc5c4CCN3C[C@H]2CC[C@@H]1O', '> 20 µg/mL'),
  ('CCN[C@H]1C[C@H](C)S(=O)(=O)c2sc(S(N)(=O)=O)cc21', '> 20 µg/mL'),
  ('CN1CCCN(C(c2ccccc2)c2ccc(Cl)cc2)CC1 (stereo not drawn)', '19.3 µg/mL');

Exam item: Annotate the compound O=C(O)[C@@H]1[C@H]2C[C@H]3c4[nH]c5ccccc5c4CCN3C[C@@H]2CC[C@@H]1O with its measured IC50.
Marked response: > 20 µg/mL

Exam item: Annotate the compound O=C(O)CCC(=O)Nc1ccc(S(=O)(=O)Nc2nccs2)cc1 with its measured IC50.
Marked response: > 20 µg/mL
